biological target: collagenase-2 (Homo sapiens, UniProt P22894); construct: Human collagenase-2 and gelatinase B were isolated in active form from buffy coats; from tissue; host or cells: human buffy coats (blood leukocytes); assay: Measurement of collagenase activity (hydrolysis of fluorogenic peptide MCA-Pro-Leu-Gly-Leu-DPA-Ala-Arg-NH2); assay type: biochemical; conditions: based on inhibitory data from Assay A of Ex. 21 and the Assay of Ex. 22
Sequence (P22894 101-467): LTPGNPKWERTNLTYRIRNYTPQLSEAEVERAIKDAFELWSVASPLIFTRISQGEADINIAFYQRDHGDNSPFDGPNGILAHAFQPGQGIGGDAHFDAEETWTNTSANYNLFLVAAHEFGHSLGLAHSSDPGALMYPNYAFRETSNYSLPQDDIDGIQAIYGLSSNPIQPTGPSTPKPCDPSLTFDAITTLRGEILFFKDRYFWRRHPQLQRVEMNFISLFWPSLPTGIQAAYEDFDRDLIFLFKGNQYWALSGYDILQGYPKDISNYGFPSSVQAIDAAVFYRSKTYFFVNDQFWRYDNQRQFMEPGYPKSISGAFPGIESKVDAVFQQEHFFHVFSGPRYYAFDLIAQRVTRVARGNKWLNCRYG
measured_property: Selectivity for PCP/Col-2

Look over these answered cases.
Query :: State its Selectivity for PCP/Col-2 for this molecule: `COc1cc(C)c(S(=O)(=O)N(Cc2ccc3[nH]ccc3c2)[C@@H](C(=O)NO)C(C)C)cc1C`
Result :: 136.4

Query :: State its Selectivity for PCP/Col-2 for this molecule: `COc1cc(C)c(S(=O)(=O)N(Cc2ccc3[nH]cnc3c2)[C@@H](C(=O)NO)C(C)C)c(C)c1C`
Result :: 250.0

Query :: State its Selectivity for PCP/Col-2 for this molecule: `COc1cc(C)c(S(=O)(=O)N(Cc2ccc3c(c2)OCO3)[C@@H](C(=O)NO)C(C)C)c(C)c1`
Result :: 55.9

P = COc1cc(C)c(S(=O)(=O)N(Cc2ccc3c(c2)OCO3)[C@H](CO)C(=O)NO)c(C)c1C
Q = COc1cc(C)c(S(=O)(=O)N(Cc2ccc3[nH]ccc3c2)[C@H](COC(C)(C)C)C(=O)NO)c(C)c1C
Query :: Which is greater in Selectivity for PCP/Col-2, the first item P or the second item Q ? Reply with the label of the item you choose.
Result :: Q
(Q: 454.5, P: 123.3)

---

Target: collagenase-1 (Homo sapiens)
Construct: the collagenase-1 catalytic domain was released by treatment with 1mM of aminophenylmercuric acetate (APMA); ubiquitin (cleaved yes); made in house; host or cells: E. coli
Sequence (P03956 100-269 limits assumed): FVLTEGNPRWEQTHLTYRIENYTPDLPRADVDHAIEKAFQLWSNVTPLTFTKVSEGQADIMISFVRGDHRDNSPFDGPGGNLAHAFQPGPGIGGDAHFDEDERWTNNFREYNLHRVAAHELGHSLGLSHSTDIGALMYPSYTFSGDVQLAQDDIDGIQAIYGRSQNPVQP
Experiment: Measurement of collagenase activity (hydrolysis of fluorogenic peptide MCA-Pro-Leu-Gly-Leu-DPA-Ala-Arg-NH2)
Assay type: biochemical
Conditions: based on inhibitory data from Assay A of Ex. 21 and the Assay of Ex. 22
Procedure: The catalytic domain of human collagenase-1 was expressed as a fusion protein with ubiquitin in E. Coli as described in Gehring, E.R. et al., J. Biol. Chem., 270, 22507, (1995). […] The collagenase-1, collagenase-2 and collagenase-3 inhibitory activity of compounds of this invention in vitro was determined based on the hydrolysis of MCA-Pro-Leu-Gly-Leu-DPA-Ala-Arg-NH2 (SEQ ID NO:8) (Bachem, Inc.) at 37°C as described in Knight, C.G., et al., FEBS Lett., 296(3): 263-266 (1992). […]
measured_property: Selectivity for PCP/Col-1

Query :: State its Selectivity for PCP/Col-1 for this compound: COc1cc(C)c(S(=O)(=O)N(Cc2ccc3c(c2)OCO3)[C@@H](C(=O)NO)C(C)C)c(C)c1 [Cmpd 40]
Result :: 367.6

a = COc1cc(C)c(S(=O)(=O)N(Cc2ccc3[nH]cnc3c2)[C@@H](C(=O)NO)C(C)C)c(C)c1C [Cmpd 82]
b = COc1cc(C)c(S(=O)(=O)N(Cc2ccc3c(c2)OCO3)[C@H](CO)C(=O)NO)c(C)c1C [Cmpd 5]
c = COc1cc(C)c(S(=O)(=O)N(Cc2ccc3c(c2)OCO3)[C@@H](C(=O)NO)C(C)C)c(C)c1C [Cmpd 12]
Query :: Ascending by Selectivity for PCP/Col-1, please: list the compounds accordingly. Record the ranking as a list of labels in the requested order.
Result :: c, b, a
(c: 89.9, b: 520.5, a: 1775.0)
